- Experimental System: PTPN2 (B16F10.4 cells) (Mus musculus, UniProt Q06180)
- Construct: HiBiT; host or cells: B16F10.4
- Sequence (Q06180 1-406): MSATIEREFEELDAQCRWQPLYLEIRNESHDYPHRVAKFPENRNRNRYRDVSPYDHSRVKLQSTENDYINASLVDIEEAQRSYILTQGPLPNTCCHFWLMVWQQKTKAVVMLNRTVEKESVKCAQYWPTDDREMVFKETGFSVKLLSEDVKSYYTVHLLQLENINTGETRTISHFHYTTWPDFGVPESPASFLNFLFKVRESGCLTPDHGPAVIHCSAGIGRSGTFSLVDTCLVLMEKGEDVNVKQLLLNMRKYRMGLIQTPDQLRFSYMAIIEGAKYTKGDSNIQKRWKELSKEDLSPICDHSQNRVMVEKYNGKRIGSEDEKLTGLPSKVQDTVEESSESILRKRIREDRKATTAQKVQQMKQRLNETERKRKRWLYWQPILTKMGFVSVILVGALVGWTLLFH
- Test Method Notes: HiBiT Degradation B16F10.4 PTPN2
- Assay type: cell-based
- Experimental Context: 24.0 hours
Readout Kind: DC50

1) CC1(C)C[C@@H](Nc2cccc(-c3sc(C(=O)O)c(OCC(=O)O)c3Cl)c2)CCN1S(=O)(=O)Cc1cccc(NC(=O)NCCCc2ccc3c4c(cccc24)N(C2CCC(=O)NC2=O)C3=O)c1 (stereo partly shown) [Example 177]
0.05 to 0.2 µM
2) CC1(C)C[C@@H](Nc2cccc(-c3sc(C(=O)O)c(OCC(=O)O)c3Cl)c2)CCN1S(=O)(=O)Cc1cccc(NC(=O)[C@H]2[C@@H]3CN(C(=O)COc4cccc5c4CN(C4CCC(=O)NC4=O)C5=O)C[C@@H]32)c1 (stereo partly shown) [Example 101]
0.05 to 0.2 µM
3) CC1(C)C[C@@H](Nc2cccc(-c3sc(C(=O)O)c(OCC(=O)O)c3Cl)c2)CCN1S(=O)(=O)Cc1cccc(NC(=O)C2CCN(C(=O)CNc3cccc4c3C(=O)N(C3CCC(=O)NC3=O)C4=O)CC2)c1 (stereo partly shown) [Example 32]
0.2 to 1 µM
4) Cn1c(=O)n(C2CCC(=O)NC2=O)c2ccc([C@H]3CCN(C(=O)Nc4cccc(CS(=O)(=O)N5CC[C@H](Nc6cccc(-c7sc(C(=O)O)c(OCC(=O)O)c7Cl)c6)CC5(C)C)c4)CC3(F)F)cc21 (stereo partly shown) [Example 168]
< 0.05 µM

----------
- Experimental System: PTPN2 (B16F10.4 cells) (Mus musculus)
- Construct: HiBiT; host or cells: B16F10.4
- Sequence (Q06180 1-406): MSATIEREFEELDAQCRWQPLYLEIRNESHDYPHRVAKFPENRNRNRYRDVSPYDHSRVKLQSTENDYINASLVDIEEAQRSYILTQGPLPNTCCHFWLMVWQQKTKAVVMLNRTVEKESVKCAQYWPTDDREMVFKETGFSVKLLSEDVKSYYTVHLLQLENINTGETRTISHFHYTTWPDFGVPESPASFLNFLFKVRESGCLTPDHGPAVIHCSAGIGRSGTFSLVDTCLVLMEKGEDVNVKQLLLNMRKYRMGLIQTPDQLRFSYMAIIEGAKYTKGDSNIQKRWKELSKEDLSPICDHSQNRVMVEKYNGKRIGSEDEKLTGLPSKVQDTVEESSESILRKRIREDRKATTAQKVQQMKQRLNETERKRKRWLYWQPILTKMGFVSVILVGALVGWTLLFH
- Test Method Notes: HiBiT Degradation B16F10.4 PTPN2
- Assay type: cell-based
- Experimental Context: 24.0 hours
Entries and their measured DC50 follow.
Readout Kind: DC50

1. Cn1c(=O)n(C2CCC(=O)NC2=O)c2ccc(N3CCC(O)(CC(=O)Nc4cccc(CS(=O)(=O)N5CC[C@@H](Nc6cccc(-c7sc(C(=O)O)c(OCC(=O)O)c7Cl)c6)CC5(C)C)c4)CC3)cc21 (stereo partly drawn) [Example 179]
200 to 1000 nM
2. O=C(O)COc1c(C(=O)O)sc(-c2cccc(NC3CCN(S(=O)(=O)Cc4cccc(NC(=O)N5CCC(c6ccc7c8c(cccc68)C(=O)N7C6CCC(=O)NC6=O)CC5)c4)CC3)c2)c1Cl (stereo not drawn) [Example 173]
< 50 nM
3. Cn1c(=O)n(C2CCC(=O)NC2=O)c2ccc(C3CCN(C(=O)Nc4cccc(CS(=O)(=O)N5CCC(Oc6cccc(-c7sc(C(=O)O)c(OCC(=O)O)c7Cl)c6)CC5)c4)CC3)cc21 (stereo not drawn) [Example 103]
50 to 200 nM
4. CC(C)n1c(=O)n(C2CCC(=O)NC2=O)c2ccc(C3CCN(C(=O)Nc4cccc(CS(=O)(=O)N5CC[C@H](Nc6cccc(-c7sc(C(=O)O)c(OCC(=O)O)c7Cl)c6)CC5(C)C)c4)CC3(F)F)cc21 (stereo partly drawn) [Example 181]
< 50 nM
5. Cn1c(=O)n([C@H]2CCC(=O)NC2=O)c2ccc(C3CCN(C(=O)Nc4cccc(CS(=O)(=O)N5CC[C@H](Nc6cccc(-c7sc(C(=O)O)c(OCC(=O)O)c7Cl)c6)CC5(C)C)c4)CC3)cc21 (single isomer, unassigned) [Example 234]
< 50 nM
6. CC1(C)C[C@@H](Nc2cccc(-c3sc(C(=O)O)c(OCC(=O)O)c3Cl)c2)CCN1S(=O)(=O)Cc1cccc(NC(=O)N2CCC(c3ccc4c5c(cccc35)C(=O)N4[C@@H]3CCC(=O)NC3=O)CC2)c1 (single isomer, unassigned) [Example 187a]
< 50 nM
7. CC1(C)C[C@@H](Nc2cccc(-c3sc(C(=O)O)c(OCC(=O)O)c3Cl)c2)CCN1S(=O)(=O)Cc1cccc(NC(=O)N2CCN(C(=O)CCc3cccc4c3CN(C3CCC(=O)NC3=O)C4=O)CC2)c1 (stereo partly drawn) [Example 64]
200 to 1000 nM
8. CC1(C)C[C@@H](Nc2cccc(-c3sc(C(=O)O)c(OCC(=O)O)c3Cl)c2)CCN1S(=O)(=O)Cc1cccc(NC(=O)COc2cccc3c2CN(C2CCC(=O)NC2=O)C3=O)c1 (stereo partly drawn) [Example 29]
200 to 1000 nM
9. O=C(O)COc1c(C(=O)O)sc(-c2cccc(NC3CCN(S(=O)(=O)Cc4cccc(NC(=O)CCCCCN5CCC(Nc6cccc7c6CN(C6CCC(=O)NC6=O)C7=O)CC5)c4)CC3)c2)c1Cl (stereo not drawn) [Example 33]
≥ 1000 nM
